- System: HBV (HepG2.117 cell line, inducibly HBV producing)
- protocol_notes: Anti-HBV activity, intracellular HBV DNA by real-time PCR in HepG2.117 cell line
- Type: cell-based, hepatitis B virus
- test_conditions: Hepatitis B virus, HepG2.117, 72 h, HepG2.117 cells, 3 days of treatment
reported_property: EC50

[
  {
    "compound": "CC(c1ccc(-n2cncn2)cc1)N1C[C@@H](C)n2nc3c(c2C1=O)CN(C(=O)c1ccc(Cl)c(C#N)c1)[C@H](C)C3 (single isomer, unassigned) [Compound 11A]",
    "endpoint_result": "0.039 µM"
  },
  {
    "compound": "C[C@@H]1Cc2nn3c(c2CN1C(=O)c1ccc(Cl)c(C#N)c1)C(=O)N([C@H](C)c1ccc(OC(F)F)cc1)CC3 [Ref 1, reference compound]",
    "endpoint_result": "0.095 µM"
  }
]

As a next step, examine the compound that follows.
# query: EC50 | item C[C@@H]1Cc2nn3c(c2CN1C(=O)c1ccc(Cl)c(C(F)(F)F)c1)C(=O)N([C@@H](C)c1ccc([S@](C)(=N)=O)cc1)C[C@H]3C (relative stereo) [Compound 19C] | system: HBV (HepG2.117 cell line, inducibly HBV producing)
0.011 µM

* * *

- Test system: HepG2 or HepG2.117 cells
- protocol_notes: Cytotoxicity, ATPlite Luminescence Assay
- Format: cell-based, human
- test_conditions: 3-days incubation unless marked with *
reported_property: CC50

Recorded results for 5 compounds are shown here.
[
  {
    "compound": "CC(c1ccn(CC(F)(F)F)c(=O)c1)N1C[C@@H](C)n2nc3c(c2C1=O)CN(C(=O)c1ccc(Cl)c(Cl)c1)[C@H](C)C3 (single isomer, unassigned) [Compound 51B]",
    "CC50": "> 50 µM"
  },
  {
    "compound": "CNC(=O)c1ccc(C(C)N2C[C@@H](C)n3nc4c(c3C2=O)CN(C(=O)c2ccc(Cl)c(Cl)c2)[C@H](C)C4)cn1 (single isomer, unassigned) [Compound 24B]",
    "CC50": "> 50 µM"
  },
  {
    "compound": "CC(c1cc(F)c(=O)n(C)c1)N1C[C@@H](C)n2nc3c(c2C1=O)CN(C(=O)c1ccc(Cl)c(Cl)c1)[C@H](C)C3 (relative stereo) [Compound 45A]",
    "CC50": "> 50 µM"
  },
  {
    "compound": "CC(c1cnc(C(C)(C)O)nc1)N1C[C@@H](C)n2nc3c(c2C1=O)CN(C(=O)c1ccc(Cl)c(Cl)c1)[C@H](C)C3 (single isomer, unassigned) [Compound 36B]",
    "CC50": "> 50 µM"
  },
  {
    "compound": "CC(c1cnc(C(F)(F)F)nc1)N1C[C@@H](C)n2nc3c(c2C1=O)CN(C(=O)c1ccc(Cl)c(Cl)c1)[C@H](C)C3 (single isomer, unassigned) [Compound 34B]",
    "CC50": "34.9 µM"
  }
]

Quick check: CC50 of CC(c1ccnc(Cl)c1)N1C[C@@H](C)n2nc3c(c2C1=O)CN(C(=O)c1ccc(Cl)c(Cl)c1)[C@H](C)C3 (single isomer, unassigned) [Compound 31B] ?
22.7 µM

Queued: CC(c1ccc(=O)n(C)n1)N1C[C@@H](C)n2nc3c(c2C1=O)CN(C(=O)c1ccc(Cl)c(Cl)c1)[C@H](C)C3 (single isomer, unassigned) [Compound 55B]
> 50 µM

* * *

- protocol_notes: Human liver microsome stability
- Assay type: in vitro ADME
- test_conditions: pooled human liver microsomes 0.5 mg/mL, 1 μM compound, NADPH 1 mM, 37° C., 0-60 min
// reported HLM Metabolism t1/2 for each item listed

[
  {
    "compound": "Cc1ccc(C(C)N2C[C@@H](C)n3nc4c(c3C2=O)CN(C(=O)c2ccc(Cl)c(Cl)c2)[C@H](C)C4)nn1 (single isomer, unassigned) [Compound 6B]",
    "HLM Metabolism t1/2": ">3 h"
  },
  {
    "compound": "C[C@@H]1Cc2nn3c(c2CN1C(=O)c1ccc(Cl)c(C(F)(F)F)c1)C(=O)N([C@@H](C)c1ccc([S@@]2(=O)=NCCC2)nc1)C[C@H]3C (relative stereo) [Compound 30B]",
    "HLM Metabolism t1/2": "0.315 h"
  }
]

With those in mind, consider the next compound.
Given CC(c1cnn(C2CC2)c(=O)c1)N1C[C@@H](C)n2nc3c(c2C1=O)CN(C(=O)c1ccc(Cl)c(C(F)(F)F)c1)[C@H](C)C3 (single isomer, unassigned) [Compound 54B] , state its recorded HLM Metabolism t1/2.
1.95 h

* * *

- System: HepG2 or HepG2.117 cells
- protocol_notes: Cytotoxicity, ATPlite Luminescence Assay
- Type: cell-based, human
- test_conditions: 3-days incubation unless marked with *
reported_property: CC50 (µM)
Dear colleague, please return just the value in µM, with no unit written.

[
  {
    "compound": "CNC(=O)C(c1ccc(OC(F)F)cc1)N1C[C@@H](C)n2nc3c(c2C1=O)CN(C(=O)c1ccc(Cl)c(Cl)c1)[C@H](C)C3 (single isomer, unassigned) [Compound 23B]",
    "endpoint_result": 49.3
  }
]

What CC50 value was documented for this compound, CC(c1cnc(N2CCOC[C@@H]2C)nc1)N1C[C@@H](C)n2nc3c(c2C1=O)CN(C(=O)c1ccc(Cl)c(C(F)(F)F)c1)[C@H](C)C3 (single isomer, unassigned) [Compound 38B] ?
28.4

* * *

- protocol_notes: Human liver microsome stability
- Type: in vitro ADME
- test_conditions: pooled human liver microsomes 0.5 mg/mL, 1 μM compound, NADPH 1 mM, 37° C., 0-60 min
reported_property: HLM Metabolism t1/2 (min)
# output: bare number, implied unit min

Solved cases below.
[
  {
    "molecule": "CC(c1ccn(C(C)C)c(=O)c1)N1C[C@@H](C)n2nc3c(c2C1=O)CN(C(=O)c1ccc(Cl)c(C(F)(F)F)c1)[C@H](C)C3 (single isomer, unassigned) [Compound 47A]",
    "HLM Metabolism t1/2, min": 53.3
  },
  {
    "molecule": "C[C@@H]1Cc2nn3c(c2CN1C(=O)c1ccc(Cl)c(C(F)(F)F)c1)C(=O)N([C@@H](C)c1ccc([S@]2(=O)=NCCC2)nc1)C[C@H]3C (relative stereo) [Compound 30D]",
    "HLM Metabolism t1/2, min": 15.3
  }
]

Turning now to a further molecule:
Report HLM Metabolism t1/2 for CC(C)Oc1cc(C(C)N2C[C@@H](C)n3nc4c(c3C2=O)CN(C(=O)c2ccc(Cl)c(C(F)(F)F)c2)[C@H](C)C4)ccn1 (single isomer, unassigned) [Compound 48B] please.
99.5

* * *

- Test system: HBV (HepG2.117 cell line, inducibly HBV producing)
- protocol_notes: Anti-HBV activity, intracellular HBV DNA by real-time PCR in HepG2.117 cell line
- Type: cell-based, hepatitis B virus
- test_conditions: Hepatitis B virus, HepG2.117, 72 h, HepG2.117 cells, 3 days of treatment
Listed molecules paired with reported EC50
Give the quantity in µM, number only.

[
  {
    "molecule": "CC(c1cc(F)c(=O)n(C)c1)N1C[C@@H](C)n2nc3c(c2C1=O)CN(C(=O)c1ccc(Cl)c(Cl)c1)[C@H](C)C3 (single isomer, unassigned) [Compound 45B]",
    "tested_target": "HBV (HepG2.117 cell line, inducibly HBV producing)",
    "endpoint_result": 0.027
  },
  {
    "molecule": "CC(C)Oc1cc(C(C)N2C[C@@H](C)n3nc4c(c3C2=O)CN(C(=O)c2ccc(Cl)c(C(F)(F)F)c2)[C@H](C)C4)ccn1 (single isomer, unassigned) [Compound 48A]",
    "tested_target": "HBV (HepG2.117 cell line, inducibly HBV producing)",
    "endpoint_result": 0.052
  },
  {
    "molecule": "C[C@@H]1Cc2nn3c(c2CN1C(=O)c1ccc(Cl)c(C#N)c1)C(=O)N([C@H](C)c1ccc(OC(F)F)cc1)C[C@@H]3C (relative stereo) [Compound 1A]",
    "tested_target": "HBV (HepG2.117 cell line, inducibly HBV producing)",
    "endpoint_result": 0.21
  }
]

Which measured EC50 belongs to CC(c1ccc(N2CCCS2(=O)=O)nc1)N1C[C@@H](C)n2nc3c(c2C1=O)CN(C(=O)c1ccc(Cl)c(C(F)(F)F)c1)[C@H](C)C3 (single isomer, unassigned) [Compound 28A] , tested on HBV (HepG2.117 cell line, inducibly HBV producing)?
0.012

* * *

- System: HBV (HepG2.117 cell line, inducibly HBV producing)
- protocol_notes: Anti-HBV activity, intracellular HBV DNA by real-time PCR in HepG2.117 cell line
- Format: cell-based, hepatitis B virus
- test_conditions: HepG2.117 cells, 3 days of treatment
reported_property: EC50 (µM)
Response body: numeric value in µM, unit text excluded.

Use the examples below as a reference point.
[
  {
    "compound": "C[C@@H]1Cc2nn3c(c2CN1C(=O)c1ccc(Cl)c(C(F)(F)F)c1)C(=O)N([C@H](C)c1ccc([S@]2(=O)=NCCC2)nc1)C[C@H]3C (relative stereo) [Compound 30C]",
    "tested_target": "HBV (HepG2.117 cell line, inducibly HBV producing)",
    "EC50 / µM": 0.31
  },
  {
    "compound": "CC(c1ccc(S(C)(=O)=O)cc1)N1C[C@@H](C)n2nc3c(c2C1=O)CN(C(=O)c1ccc(Cl)c(Cl)c1)[C@H](C)C3 (single isomer, unassigned) [Compound 15A]",
    "tested_target": "HBV (HepG2.117 cell line, inducibly HBV producing)",
    "EC50 / µM": 0.063
  }
]

Any idea what EC50 was measured for Cc1nnnn1-c1ccc(C(C)N2C[C@@H](C)n3nc4c(c3C2=O)CN(C(=O)c2ccc(Cl)c(Cl)c2)[C@H](C)C4)cn1 (single isomer, unassigned) [Compound 27B] ?
0.018

Also CC(c1ccc(N2CCCC2=O)cc1)N1C[C@@H](C)n2nc3c(c2C1=O)CN(C(=O)c1ccc(Cl)c(C#N)c1)[C@H](C)C3 (single isomer, unassigned) ?
0.02

Recorded values, source patent US20240287070A1.
